// provenance: patent US20220009894A1

target-or-system: RORγt (Homo sapiens, UniProt P51449)
Construct: The plasmid of pFN26A-RORγt-LBD and pG14.35 (Promega, Cat. No. E1370) were co-transfected into HEK 293 cells; expressed in transfected cells; host or cells: HEK 293 cells (Cat. No. GNHu18)
Sequence (P51449 269-508 limits assumed): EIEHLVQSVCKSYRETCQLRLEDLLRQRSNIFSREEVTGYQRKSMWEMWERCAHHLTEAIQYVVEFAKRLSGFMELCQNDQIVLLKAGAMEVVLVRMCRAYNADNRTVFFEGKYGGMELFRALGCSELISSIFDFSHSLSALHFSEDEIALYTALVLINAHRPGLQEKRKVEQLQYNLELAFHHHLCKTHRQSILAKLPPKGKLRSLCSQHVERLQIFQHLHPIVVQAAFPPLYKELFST
assay-comment: RORγt cellular reporter gene detection assay;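 as to Cellular Reporter Assay Amax: Ursolic Acid added as 5 µL of 20 µM medium per well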
Type: cell-based
test-context: upper activation limit; HEK 293 cells, in presence of antagonist Ursolic acid, 24 hrs
experimental-readout: Cellular Reporter Assay Amax

P: C/C(=C\c1ccc2c(c1)N(S(=O)(=O)c1cccc(C(F)(F)F)c1)C[C@@H]1CNCCN21)c1c(F)cccc1Cl [Example 10]
Q: O=C(O)CCOC1CCN2c3ccc(-c4cc(F)cc(OC(F)F)c4)cc3N(S(=O)(=O)c3cccc(C(F)(F)F)c3)C[C@@H]2C1 (stereo partly drawn) [Example 109]
Exercise: Endpoint returns whichever of P and Q has the numerically higher Cellular Reporter Assay Amax. Response format: the label of the selected entry.
Solution: Q

###

target-or-system: RORγt-LBD (Homo sapiens, UniProt P51449)
Sequence (P51449 269-508 limits assumed): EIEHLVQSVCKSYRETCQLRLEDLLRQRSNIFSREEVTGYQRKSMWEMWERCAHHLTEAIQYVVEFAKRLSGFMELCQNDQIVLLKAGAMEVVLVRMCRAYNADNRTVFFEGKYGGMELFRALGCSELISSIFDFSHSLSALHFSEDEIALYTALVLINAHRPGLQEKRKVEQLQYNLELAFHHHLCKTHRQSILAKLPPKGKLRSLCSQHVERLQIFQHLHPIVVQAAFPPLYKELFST
assay-comment: Time-resolved fluorescence resonance energy-transfer assay (TR-FRET), co-activator peptide recruitment
Format: biochemical
Parameters: unit not given here
test-context: upper activation limit; His-RORγt-LBD, SRC peptide
experimental-readout: TR-FRET Biochemical Amax

1: O=C(O)CCO[C@@H]1CCN2c3ccc(-c4cc(F)cc(OC(F)F)c4)cc3N(S(=O)(=O)c3cccc(C(F)(F)F)c3)C[C@@H]2C1
2: O=S(=O)(c1cccc(C(F)(F)F)c1)N1CCNc2ccc(-c3cc(F)cc(OC(F)F)c3)cc21
3: O=S(=O)(c1cccc(C(F)(F)F)c1)N1C[C@@H]2CC(O[C@@H]3O[C@H](CO)[C@@H](O)[C@H](O)[C@H]3O)CCN2c2ccc(-c3cc(F)cc(OC(F)F)c3)cc21 (stereo partly drawn)
Exercise: Reorder the list above by recorded TR-FRET Biochemical Amax in ascending order. Respond with the label ranking, as requested.
Solution: 3, 1, 2
(3: 0.33, 1: 0.71, 2: 1.85)

a: CCOC(=O)CN1CCN2c3ccc(/C=C(\C)c4c(F)cccc4Cl)cc3N(S(=O)(=O)c3cccc(C(F)(F)F)c3)C[C@@H]2C1
b: O=S(=O)(c1cccc(C(F)(F)F)c1)N1C[C@@H]2CN(C[C@@H](O)CO)CCN2c2ccc(-c3cc(F)cc(OC(F)F)c3)cc21
Exercise: Endpoint returns whichever of a and b has the numerically higher TR-FRET Biochemical Amax. Response format: the label of the selected entry.
Solution: a
(a: 0.87, b: 0.58)

###

target-or-system: RORγt (Homo sapiens)
Construct: The plasmid of pFN26A-RORγt-LBD and pG14.35 (Promega, Cat. No. E1370) were co-transfected into HEK 293 cells
Sequence (P51449 269-508 limits assumed): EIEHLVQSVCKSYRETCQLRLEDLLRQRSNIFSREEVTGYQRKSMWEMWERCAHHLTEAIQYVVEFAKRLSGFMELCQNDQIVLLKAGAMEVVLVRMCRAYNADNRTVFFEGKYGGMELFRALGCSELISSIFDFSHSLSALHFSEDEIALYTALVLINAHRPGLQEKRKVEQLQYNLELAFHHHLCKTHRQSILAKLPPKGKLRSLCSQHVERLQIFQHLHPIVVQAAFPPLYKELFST
assay-comment: RORγt cellular reporter gene detection assay
test-context: HEK 293 cells co-transfected with pFN26A-RORγt-LBD and pG14.35, in presence of antagonist Ursolic acid, 24 hrs; top concentration 50 μM
Protocol: II. RORγt Cellular Reporter Gene Detection Assay In this experiment, RORγt Reporter Gene Detection method was used to evaluate the activation and specificity of compounds to RORγt in cells. […] The efficacy of compounds was evaluated with the presence of an antagonist Ursolic acid (Selleck, Cat. No. S2370-100 mg). […] The dose effect was evaluated by a 4-fold dilution of the test compound starting from 50 μM; • 4. […]
experimental-readout: EC50 (nM)

Solved cases (8 shown):
> print(dat)
                                   compound      target.or.system  experimental.readout  display.unit  value.measured
1  O=S(=O)(c1cccc(C(F)(F)F)c1)N1C[C@@H]2CNCCN2c2ccc(-c3cc(F)cc(OC(F)F)c3)cc21  RORγt (Homo sapiens)                  EC50            nM            2390
2  C/C(=C\c1ccc2c(c1)N(S(=O)(=O)c1cccc(C(F)(F)F)c1)C[C@@H]1CN(C3(C#N)CCC3)CCN21)c1c(F)cccc1Cl  RORγt (Homo sapiens)                  EC50            nM            1180
3  NS(=O)(=O)N1CCN2c3ccc(-c4cc(F)cc(OC(F)F)c4)cc3N(S(=O)(=O)c3cccc(C(F)(F)F)c3)C[C@@H]2C1  RORγt (Homo sapiens)                  EC50            nM             158
4  O=C(O)CN1CCN2c3ccc(/C=C/c4c(Cl)cccc4C(F)(F)F)cc3N(S(=O)(=O)c3cccc(C(F)(F)F)c3)C[C@@H]2C1  RORγt (Homo sapiens)                  EC50            nM             418
5  NC(=O)C1(N2CCN3c4ccc(/C=C/c5c(Cl)cccc5C(F)(F)F)cc4N(S(=O)(=O)c4cccc(C(F)(F)F)c4)C[C@@H]3C2)CCC1  RORγt (Homo sapiens)                  EC50            nM             355
6  CC(C(=O)O)N1CCN2c3ccc(C4=CC(C)(C)OC(C)(C)C4)cc3N(S(=O)(=O)c3cccc(C(F)(F)F)c3)C[C@@H]2C1 (stereo partly shown)  RORγt (Homo sapiens)                  EC50            nM             228
7  N#Cc1cc(F)cc(-c2ccc3c(c2)N(S(=O)(=O)c2cccc(C(F)(F)F)c2)C[C@@H]2CN(CC(=O)O)CCN32)c1  RORγt (Homo sapiens)                  EC50            nM             649
8  NC(=S)N1CCN2c3ccc(-c4cc(F)cc(OC(F)F)c4)cc3N(S(=O)(=O)c3cccc(C(F)(F)F)c3)C[C@@H]2C1  RORγt (Homo sapiens)                  EC50            nM             563

P: O=C(O)CN1CCN2c3ccc(-c4cc(F)cc(OC(F)F)c4)cc3N(S(=O)(=O)c3cc(C(F)(F)F)cnc3OCCO)C[C@@H]2C1
Q: CN1c2ccc(C3CC(C)(C)OC(C)(C)C3)cc2N(S(=O)(=O)c2cccc(C(F)(F)F)c2)C[C@@H]1CCC(=O)O
R: CN1CCN(S(=O)(=O)c2cccc(C(F)(F)F)c2)c2cc(-c3cc(F)cc(OC(F)F)c3)ccc21
S: O=C(O)CN1CCN2c3ccc(/C=C/c4c(Cl)cccc4C(F)(F)F)cc3N(S(=O)(=O)c3cccc(OC(F)(F)F)c3)C[C@@H]2C1
T: CCOC(=O)CN1CCN2c3ccc(/C=C/c4c(Cl)cccc4C(F)(F)F)cc3N(S(=O)(=O)c3cccc(C(F)(F)F)c3)C[C@@H]2C1
Exercise: Arrange these compounds by their EC50, starting with the largest number. Respond with the label ranking, as requested.
Solution: P, S, T, R, Q
(P: 3760 nM, S: 2340 nM, T: 924 nM, R: 518 nM, Q: 295 nM)

###

target-or-system: UniProt:P51449
Sequence (P51449 269-508 limits assumed): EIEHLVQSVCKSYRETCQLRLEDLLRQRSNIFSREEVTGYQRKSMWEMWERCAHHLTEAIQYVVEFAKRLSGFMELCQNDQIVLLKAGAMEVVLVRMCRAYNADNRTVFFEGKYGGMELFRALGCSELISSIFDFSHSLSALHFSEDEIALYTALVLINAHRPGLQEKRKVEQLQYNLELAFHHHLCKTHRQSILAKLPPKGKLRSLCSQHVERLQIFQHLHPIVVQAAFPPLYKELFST
assay-comment: Time-resolved fluorescence resonance energy-transfer assay (TR-FRET), co-activator peptide recruitment
test-context: His-RORγt-LBD 30 nM, SRC peptide 500 nM; agonistic activity; averages of one or more measurements; read-out: TR-FRET Biochemical EC50/
Description: I. Time-Resolved Fluorescence Resonance Energy-Transfer Assay (TR-FRET) This experiment was a screening experiment for RORγt nuclear receptor agonists based on TR-FRET technology. […] Then the corresponding signal values were read with PerkinElmer EnVision at a wavelength of 665/615 […]. The agonistic activity of the corresponding compound was calculated with Graphpad Prism 7.0 software.
experimental-readout: EC50 (nM)

molecule	target-or-system	EC50 (nM)
O=S(=O)(c1cccc(C(F)(F)F)c1)N1C[C@@H]2CC(O[C@@H]3O[C@H](CO)[C@@H](O)[C@H](O)[C@H]3O)CCN2c2ccc(-c3cc(F)cc(OC(F)F)c3)cc21 (stereo partly drawn) [Example 112]	UniProt:P51449	273
C/C(=C\c1ccc2c(c1)N(S(=O)(=O)c1cccc(C(F)(F)F)c1)C[C@@H]1CN(C(C#N)(CO)CO)CCN21)c1c(F)cccc1Cl [Example 73]	UniProt:P51449	40
NC(=O)CN1CCN2c3ccc(/C=C/c4c(Cl)cccc4C(F)(F)F)cc3N(S(=O)(=O)c3cccc(C(F)(F)F)c3)C[C@@H]2C1 [Example 59]	UniProt:P51449	100

P: CN1c2ccc(/C=C/c3c(Cl)cccc3C(F)(F)F)cc2N(S(=O)(=O)c2cccc(C(F)(F)F)c2)C[C@@H]1CCC(=O)O [Example 6]
Q: NC(=O)C1(N2CCN3c4ccc(-c5cc(F)cc(OC(F)F)c5)cc4N(S(=O)(=O)c4cccc(C(F)(F)F)c4)C[C@@H]3C2)CCC1 [Example 80]
Exercise: When the recorded EC50 values are compared, which is smaller: that of P or that of Q ? Response format: the label of the selected entry.
Solution: P
(P: 16.1 nM, Q: 39.3 nM)
